# study target: UniProtKB O00418
# Sequence (O00418 1-725): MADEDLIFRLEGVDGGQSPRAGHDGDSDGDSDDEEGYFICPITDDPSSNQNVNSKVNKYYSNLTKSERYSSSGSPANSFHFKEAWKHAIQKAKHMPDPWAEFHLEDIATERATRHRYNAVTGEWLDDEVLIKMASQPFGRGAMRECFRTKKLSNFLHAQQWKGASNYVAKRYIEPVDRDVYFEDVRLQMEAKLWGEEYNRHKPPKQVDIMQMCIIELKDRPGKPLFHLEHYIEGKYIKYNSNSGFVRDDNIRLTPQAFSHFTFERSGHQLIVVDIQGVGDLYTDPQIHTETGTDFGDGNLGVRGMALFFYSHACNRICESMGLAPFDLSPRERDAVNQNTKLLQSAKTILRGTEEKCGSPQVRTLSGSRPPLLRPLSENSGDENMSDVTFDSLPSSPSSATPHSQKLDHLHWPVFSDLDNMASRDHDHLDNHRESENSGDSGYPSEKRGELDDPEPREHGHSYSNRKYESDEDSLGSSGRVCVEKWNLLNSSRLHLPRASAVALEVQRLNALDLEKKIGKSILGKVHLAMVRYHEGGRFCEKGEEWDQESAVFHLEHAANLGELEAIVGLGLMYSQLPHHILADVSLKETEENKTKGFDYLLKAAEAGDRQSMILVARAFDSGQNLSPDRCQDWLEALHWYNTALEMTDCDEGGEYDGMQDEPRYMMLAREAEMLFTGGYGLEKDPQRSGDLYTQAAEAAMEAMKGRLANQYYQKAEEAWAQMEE
# assay method text: Kinase panel profiling at 1 µmol/L (MSA or IMAP), percentage inhibition
# Assay type: biochemical
# protocol conditions: kinase EEF2K; 1 µmol/L single concentration; read-out: %-inhibition at 1 µmol/L, EEF2K
experimental endpoint: inhibition at 1 µM (%)

1. CCN1CCN(c2ccc(Nc3cc(N(C)C(=O)Nc4c(Cl)c(OC)cc(OC)c4Cl)ncn3)cc2)CC1 [infigratinib] :: 2.54
2. Cc1cc(Nc2ncnc3ccc(NC4=NC(C)(C)CO4)cc23)ccc1Oc1ccn2ncnc2c1 [tucatinib] :: -2.79
3. Cn1cnc2c(F)c(Nc3ccc(Br)cc3Cl)c(C(=O)NOCCO)cc21 [selumetinib] :: 2.4
4. CCN1C(=O)N(c2c(F)c(OC)cc(OC)c2F)Cc2cnc3[nH]c(CN4CCOCC4)cc3c21 [pemigatinib] :: -3.26

---

# study target: panel of 255 wild-type kinases (Homo sapiens, UniProt P35916)
# Sequence (P35916 25-1363): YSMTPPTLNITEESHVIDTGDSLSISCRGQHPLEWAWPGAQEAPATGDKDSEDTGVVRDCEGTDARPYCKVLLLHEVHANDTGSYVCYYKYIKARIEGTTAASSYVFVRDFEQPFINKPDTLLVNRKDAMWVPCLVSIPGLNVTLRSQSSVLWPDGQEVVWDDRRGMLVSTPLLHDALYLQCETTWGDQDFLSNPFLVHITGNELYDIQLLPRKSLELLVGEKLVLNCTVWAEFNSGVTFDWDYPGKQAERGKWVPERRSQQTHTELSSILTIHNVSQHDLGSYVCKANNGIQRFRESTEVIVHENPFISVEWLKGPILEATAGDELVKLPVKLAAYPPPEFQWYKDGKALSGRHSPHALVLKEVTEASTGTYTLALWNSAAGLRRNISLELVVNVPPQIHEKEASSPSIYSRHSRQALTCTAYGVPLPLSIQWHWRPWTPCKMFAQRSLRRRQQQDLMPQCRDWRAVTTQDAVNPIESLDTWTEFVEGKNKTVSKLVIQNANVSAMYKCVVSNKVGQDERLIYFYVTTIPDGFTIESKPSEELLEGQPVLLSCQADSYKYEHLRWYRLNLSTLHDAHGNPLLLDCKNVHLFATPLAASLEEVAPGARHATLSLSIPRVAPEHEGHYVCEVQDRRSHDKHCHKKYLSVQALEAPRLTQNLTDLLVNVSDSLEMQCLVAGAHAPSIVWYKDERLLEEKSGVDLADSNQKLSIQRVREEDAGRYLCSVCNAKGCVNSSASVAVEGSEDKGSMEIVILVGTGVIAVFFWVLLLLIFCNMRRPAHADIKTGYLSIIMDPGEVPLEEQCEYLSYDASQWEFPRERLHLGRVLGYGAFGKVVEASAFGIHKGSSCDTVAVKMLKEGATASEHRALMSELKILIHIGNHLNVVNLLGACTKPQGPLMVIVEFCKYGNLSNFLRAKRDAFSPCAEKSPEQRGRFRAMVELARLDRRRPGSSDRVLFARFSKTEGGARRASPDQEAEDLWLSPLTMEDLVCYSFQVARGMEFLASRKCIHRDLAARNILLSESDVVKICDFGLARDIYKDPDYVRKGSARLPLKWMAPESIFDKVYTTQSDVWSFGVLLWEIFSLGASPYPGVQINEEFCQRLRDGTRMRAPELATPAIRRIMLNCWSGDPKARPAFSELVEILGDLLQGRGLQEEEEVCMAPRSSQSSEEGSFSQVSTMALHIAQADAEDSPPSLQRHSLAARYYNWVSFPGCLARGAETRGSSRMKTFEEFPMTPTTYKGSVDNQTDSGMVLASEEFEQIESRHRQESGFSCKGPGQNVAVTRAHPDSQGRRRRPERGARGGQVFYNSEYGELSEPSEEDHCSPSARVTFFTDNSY
# assay method text: Kinase panel profiling at 1 µmol/L (MSA or IMAP), percentage inhibition
# Format: biochemical
# protocol conditions: kinase FLT4; 1 µmol/L single concentration; read-out: %-inhibition at 1 µmol/L, FLT4
experimental endpoint: inhibition at 1 µM (%)

1) Cn1cnc2c(F)c(Nc3ccc(Br)cc3Cl)c(C(=O)NOCCO)cc21 :: 8
2) COC(=O)N[C@@H](C)CNc1nccc(-c2cn(C(C)C)nc2-c2cc(Cl)cc(NS(C)(=O)=O)c2F)n1 :: 17
3) CCN1C(=O)N(c2c(F)c(OC)cc(OC)c2F)Cc2cnc3[nH]c(CN4CCOCC4)cc3c21 :: 99
4) CCn1c(=O)c(-c2cc(NC(=O)Nc3ccccc3)c(F)cc2Br)cc2cnc(NC)cc21 :: 93
5) O=C(Nc1cnn2ccc(N3CCC[C@@H]3c3cc(F)ccc3F)nc12)N1CC[C@H](O)C1 :: -1
6) Cc1nc(NC(=O)N2CCC[C@H]2C(N)=O)sc1-c1ccnc(C(C)(C)C(F)(F)F)c1 :: 5
